protocol details: qHTS assay to identify small molecule antagonists of the estrogen related receptor (ERR) signaling pathway from Tox21 library - cell viability counter screen (AID 1224834); also: nearly all actives have a fitted effect of over 30% in size
test context: ERR reporter cells viability, CellTiter-Fluor, 17.5 h; series mostly up to 92.4 µM
Inconclusive results are not listed. Active and inactive are the calls of the source. Calls follow the shape of the dose curve; as a rule, active = well fitted cell-killing curve with a large enough effect in the repeat runs; inconclusive = weak or mixed curves; inactive = flat fitted curve, though single readings scatter.
Respond with a class label; see true (1) = active, false (0) = inactive

Study these solved cases before continuing.
Dear all, I need the recorded test outcome for O=NN(CCO)CCO , thank you.
false (0)

Dear all, I need the recorded test outcome for C=C(C)C(=O)[O][Sn]([CH2]CCC)([CH2]CCC)[CH2]CCC , thank you.
true (1)

Dear all, I need the recorded test outcome for Nc1c(Cl)c(Cl)c(Cl)c(Cl)c1Cl , thank you.
false (0)

Dear all, I need the recorded test outcome for CCOP(=S)(OCC)SC(CCl)N1C(=O)c2ccccc2C1=O (stereo not given) , thank you.
false (0)

Dear all, I need the recorded test outcome for CCCCn1cc[n+](C)c1.[Cl][Fe-]([Cl])([Cl])[Cl] , thank you.
false (0)

Others:
Dear all, I need the recorded test outcome for CC(=O)[O-].CC(=O)[O-].[Co+2] , thank you.
false (0)

----------
protocol details: qHTS assay to identify small molecule antagonists of the androgen receptor (AR) signaling pathway using the MDA cell line - cell viability counter screen (AID 743041; also: nearly all actives have a fitted effect of over 45% in size)
test context: MDA-kb2 viability, CellTiter-Fluor, 16 h, cells co-treated with R1881 androgen agonist; series mostly up to 70.3 µM
Records with an inconclusive call do not appear. Calls of active or inactive are those of the source. Calls follow the shape of the dose curve; as a rule, active = well fitted cell-killing curve with a large enough effect in the repeat runs; inconclusive = weak or mixed curves, or effect the other way; inactive = flat fitted curve, though single readings scatter.
Respond with a class label; see active, inactive

Study these solved cases before continuing.
Dear all, I need the recorded test outcome for Clc1ccc(C(c2ccc(Cl)cc2)C(Cl)Cl)cc1 , thank you.
inactive

Dear all, I need the recorded test outcome for COP(=S)(OC)Oc1ccc([N+](=O)[O-])c(C)c1 , thank you.
inactive

Dear all, I need the recorded test outcome for CCOC(=O)CCN(SN(C)C(=O)Oc1cccc2c1OC(C)(C)C2)C(C)C , thank you.
inactive

Dear all, I need the recorded test outcome for CCOP(=S)(OCC)SC(CCl)N1C(=O)c2ccccc2C1=O (centres undefined) , thank you.
inactive

Dear all, I need the recorded test outcome for CCOC(=O)Cc1ccccc1 , thank you.
inactive

Dear all, I need the recorded test outcome for Clc1ccc(C2(Cn3cncn3)OCCO2)c(Cl)c1 , thank you.
inactive

Dear all, I need the recorded test outcome for N#Cc1sc2c(=O)c3ccccc3c(=O)c=2sc1C#N , thank you.
active

Dear all, I need the recorded test outcome for CC(C)Br , thank you.
inactive

Others:
Dear all, I need the recorded test outcome for C#CC1(O)CCCCC1 , thank you.
inactive

----------
protocol details: A CellTox Green Cytotoxicity Assay to monitor cytotoxicity in HepG2 cells - 40 hour (AID 1224879); also: nearly all actives have a fitted effect of over 40% in size
test context: CellTox Green fluorescence; series mostly up to 76.8 µM
Results filed as inconclusive are left out. The source made the active and inactive calls. Calls follow the shape of the dose curve; as a rule, active = well fitted activation curve with a large enough effect in the repeat runs; inconclusive = weak or mixed curves; inactive = flat fitted curve, though single readings scatter.
Respond with a class label; see true (1) = active, false (0) = inactive

Study these solved cases before continuing.
Dear all, I need the recorded test outcome for C#CCO , thank you.
false (0)

Dear all, I need the recorded test outcome for CSC(=O)c1c(C(F)F)nc(C(F)(F)F)c(C(=O)SC)c1CC(C)C , thank you.
false (0)

Dear all, I need the recorded test outcome for CC(C)Br , thank you.
false (0)

Dear all, I need the recorded test outcome for BrCC(Br)(Br)Br , thank you.
false (0)

Dear all, I need the recorded test outcome for COP(=S)(OC)Oc1ccc([N+](=O)[O-])c(C)c1 , thank you.
false (0)

Dear all, I need the recorded test outcome for N#CSCc1ccccc1 , thank you.
false (0)

Dear all, I need the recorded test outcome for CCN(CC)CCN1C(=O)CN=C(c2ccccc2F)c2cc(Cl)ccc21 , thank you.
false (0)

Dear all, I need the recorded test outcome for CC(C)(C)c1ccc(OP(=O)(Oc2ccccc2)Oc2ccccc2)cc1 , thank you.
false (0)

Dear all, I need the recorded test outcome for Cc1ccc(C)c2ccccc12 , thank you.
false (0)

Dear all, I need the recorded test outcome for Nc1cc(Cl)ccc1Cl , thank you.
false (0)

Others:
Dear all, I need the recorded test outcome for CCCCn1cc[n+](C)c1 (tested in a mixture with another compound) , thank you.
false (0)

Dear all, I need the recorded test outcome for CCCCn1cc[n+](C)c1.[Cl][Fe-]([Cl])([Cl])[Cl] , thank you.
false (0)

Dear all, I need the recorded test outcome for CCc1cccc(C)c1N(C(=O)CCl)[C@@H](C)COC , thank you.
true (1)
